// provenance: patent US4452788A

target: adenosine receptor; test: adenosine receptor antagonism assayed by the procedure described in Proc. Natl. Acad. Sci. USA, 77, 5547 (1980); type: binding; conditions: procedure of Proc. Natl. Acad. Sci. USA, 77, 5547 (1980)
Counter-ions that a name gives are not always drawn.
Under this convention, Yes denotes IC50 strictly below 600 nM and No denotes IC50 at or above 600 nM.

Given the entry CCn1c(=O)c2[nH]c(-c3ccc(S(=O)(=O)N4CCN(C)CC4)cc3)nc2n(CC)c1=O , would its reported IC50 be below 600 nM?
Yes

Given the entry CCn1c(=O)c2[nH]c(-c3cccc(S(=O)(=O)O)c3)nc2n(CC)c1=O [C2 H5, C2 H5, H, 3-SO3 K, potassium salt] , would its reported IC50 be below 600 nM?
No

Given the entry CCn1c(=O)c2[nH]c(-c3ccc(S(=O)(=O)O)cc3)nc2n(CC)c1=O , would its reported IC50 be below 600 nM?
No

Given the entry CCn1c(=O)c2[nH]c(-c3ccc(S(=O)(=O)NCCCN(C)C)cc3)nc2n(CC)c1=O , would its reported IC50 be below 600 nM?
Yes

Given the entry CCn1c(=O)c2[nH]c(-c3cccc(S(=O)(=O)NCCN(C)C)c3)nc2n(CC)c1=O , would its reported IC50 be below 600 nM?
Yes

Given the entry CCCn1c(=O)c2[nH]c(-c3ccc(S(=O)(=O)NCCN(C)C)cc3)nc2n(CCC)c1=O , would its reported IC50 be below 600 nM?
Yes
